Test system: kinases
Test: KINOMEscan kinase binding assay (Eurofins/DiscoveRx), % Ctrl
Settings: 1 μM; FLT3(ITD)
Property: % Ctrl, FLT3(ITD); scope: individual compounds
QUANTITY: % Ctrl, FLT3(ITD) (% Ctrl)

[
  {
    "COMPOUND_STRING": "Cc1cc2c([nH]1)/C=C1\\C(=O)Nc3cc(Cl)c(cc31)OCCO[C@@H](C(=O)N[C@@H]1CCNC1)CN(C)C2=O",
    "UNIT_LABEL": "% Ctrl",
    "EXPERIMENTAL_RESULT": 23
  },
  {
    "COMPOUND_STRING": "Cc1cc2c([nH]1)/C=C1\\C(=O)Nc3ccc(cc31)OCCOCCNC2=O",
    "UNIT_LABEL": "% Ctrl",
    "EXPERIMENTAL_RESULT": 32
  },
  {
    "COMPOUND_STRING": "Cc1cc2c([nH]1)/C=C1\\C(=O)Nc3cnc(cc31)-c1cnn(C)c1COCCNC2=O",
    "UNIT_LABEL": "% Ctrl",
    "EXPERIMENTAL_RESULT": 93
  }
]

---

Biological target: kinases (Homo sapiens)
Construct: purchased Eurofins/DiscoveRx; host or cells: E. coli BL21-derived host (T7 phage display) for most kinases; HEK-293 for the rest
Sequence (P35916 25-1363): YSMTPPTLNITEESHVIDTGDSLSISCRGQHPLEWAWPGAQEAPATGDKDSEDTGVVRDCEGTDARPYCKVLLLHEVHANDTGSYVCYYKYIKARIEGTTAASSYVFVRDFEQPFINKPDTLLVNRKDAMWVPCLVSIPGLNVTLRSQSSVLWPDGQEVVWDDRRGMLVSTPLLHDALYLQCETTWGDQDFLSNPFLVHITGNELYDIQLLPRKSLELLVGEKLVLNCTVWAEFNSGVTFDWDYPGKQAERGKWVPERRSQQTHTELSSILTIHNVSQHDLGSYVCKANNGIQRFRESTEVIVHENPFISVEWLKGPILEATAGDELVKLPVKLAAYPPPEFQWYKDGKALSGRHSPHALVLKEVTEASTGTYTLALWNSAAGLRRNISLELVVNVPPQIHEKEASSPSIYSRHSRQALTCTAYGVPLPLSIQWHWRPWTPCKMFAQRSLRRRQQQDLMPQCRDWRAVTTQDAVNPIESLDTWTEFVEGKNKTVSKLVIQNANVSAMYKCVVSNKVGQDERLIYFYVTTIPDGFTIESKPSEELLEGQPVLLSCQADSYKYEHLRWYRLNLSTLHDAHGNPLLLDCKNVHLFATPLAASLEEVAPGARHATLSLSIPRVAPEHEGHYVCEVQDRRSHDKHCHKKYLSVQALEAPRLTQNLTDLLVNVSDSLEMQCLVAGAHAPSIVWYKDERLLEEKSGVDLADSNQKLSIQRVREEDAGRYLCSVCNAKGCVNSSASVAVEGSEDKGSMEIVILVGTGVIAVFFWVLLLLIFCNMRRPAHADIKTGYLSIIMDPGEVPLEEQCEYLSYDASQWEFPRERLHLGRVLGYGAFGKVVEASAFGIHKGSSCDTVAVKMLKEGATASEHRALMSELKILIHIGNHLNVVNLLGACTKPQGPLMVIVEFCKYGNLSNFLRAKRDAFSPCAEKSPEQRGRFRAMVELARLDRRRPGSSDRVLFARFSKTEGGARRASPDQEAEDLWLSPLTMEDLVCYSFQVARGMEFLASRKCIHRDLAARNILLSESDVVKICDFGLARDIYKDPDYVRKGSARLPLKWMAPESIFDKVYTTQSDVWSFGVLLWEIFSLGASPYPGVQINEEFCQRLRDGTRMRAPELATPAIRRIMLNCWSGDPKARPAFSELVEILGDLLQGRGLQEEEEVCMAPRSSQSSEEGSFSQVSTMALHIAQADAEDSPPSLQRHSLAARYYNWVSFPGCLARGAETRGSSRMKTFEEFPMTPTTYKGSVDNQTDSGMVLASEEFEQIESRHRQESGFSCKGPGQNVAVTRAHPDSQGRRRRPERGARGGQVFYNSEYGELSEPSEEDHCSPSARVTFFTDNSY
Experiment: KINOMEscan kinase binding assay (Eurofins/DiscoveRx), % Ctrl
Conditions: 1 μM; FLT4
# maps each entry to its % Ctrl, FLT4

[
  {
    "MOLECULE": "Cc1cc2c([nH]1)/C=C1\\C(=O)Nc3ccc(cc31)CN(C)C(=O)COCCNC2=O [Ex.111]",
    "% Ctrl, FLT4 [% Ctrl]": 74
  },
  {
    "MOLECULE": "Cc1cc2c([nH]1)/C=C1\\C(=O)Nc3ccc(cc31)OCCOCCNC2=O [Ex. 129]",
    "% Ctrl, FLT4 [% Ctrl]": 83
  },
  {
    "MOLECULE": "Cc1cc2c([nH]1)/C=C1\\C(=O)Nc3ccc(cc31)O[C@@H](C)COCCN(C)C2=O [Ex. 92]",
    "% Ctrl, FLT4 [% Ctrl]": 75
  },
  {
    "MOLECULE": "Cc1cc2c([nH]1)/C=C1\\C(=O)Nc3cnc(cc31)-c1cnn(C)c1COCCNC2=O [Ex.123]",
    "% Ctrl, FLT4 [% Ctrl]": 94
  },
  {
    "MOLECULE": "Cc1cc2c([nH]1)/C=C1\\C(=O)Nc3cnc(nc31)N(C)CCCOCCN(C)C2=O [Ex.71]",
    "% Ctrl, FLT4 [% Ctrl]": 95
  },
  {
    "MOLECULE": "Cc1cc2c([nH]1)/C=C1\\C(=O)Nc3cc(Cl)c(cc31)OCCO[C@@H](C(=O)N[C@@H]1CCNC1)CN(C)C2=O [Ex. 136]",
    "% Ctrl, FLT4 [% Ctrl]": 100
  },
  {
    "MOLECULE": "Cc1cc2c([nH]1)/C=C1\\C(=O)Nc3cc(Cl)c(cc31)OCCO[C@@H](C(=O)NC1CCNCC1)CN(C)C2=O [Ex. 134]",
    "% Ctrl, FLT4 [% Ctrl]": 90
  },
  {
    "MOLECULE": "Cc1cc2c([nH]1)/C=C1\\C(=O)Nc3ccc(cc31)-c1ccnn1CCOCCNC2=O [Ex.39]",
    "% Ctrl, FLT4 [% Ctrl]": 98
  }
]
